# PBM binding z-score listing for each entry below
System: PPARa:RXRa (NR concentration 270 nM, RXRa partner concentration 90 nM)
Assay: PBM binding z-score (relative to random genomic background probes); higher = stronger binding; sequences stand for … in GC…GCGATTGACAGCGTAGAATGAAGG

Item sequence | PBM binding z-score
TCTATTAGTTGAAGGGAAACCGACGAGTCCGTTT | 0.587
CGTCCAAGGTGAGAGAGGTCAGTGAATGCCGAGT | 3.11
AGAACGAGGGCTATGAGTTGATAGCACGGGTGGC | -0.335
ATCTCTAGGTAAAGTTCAGTGTAAGATCGATAGA | 2.47
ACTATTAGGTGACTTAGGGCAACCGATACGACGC | 1.27
CCTCGGAGGACAGAAGTTCAGAGCTGTCCGCTTT | -0.198
ACAGACAGGTGAGCGAAGGTAACTCAGCTGGACG | 0.0839
TAGCCTAGGTCATGGGCCAGTACACCACGCGAAC | 4.05
TAGCCTAGGTCATGCGGGCAAGTATAGTGTCGGC | 3.73
TGTCAAAGTTCAAAGGTAACGTACGTATCCACAC | 5.75
GCTCGGAGGACGAGGTCAGAGCTTTGTCCGTAGA | 2.9
CCTACTGGGCCAAAGGTCGTTGATTCCAATGCTC | 5.3
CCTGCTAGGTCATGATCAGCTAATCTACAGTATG | 3.31
CCTTATGGGTCACTCCAGGTTATAGCATCGGAGT | 3.92
CAAACTAGGTCACGAATGGTCAAAGTCGAATGAC | 5.82
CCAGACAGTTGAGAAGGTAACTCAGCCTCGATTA | 0.142
CCTCGGAGGACAGAACGTCAGAGCTGTCCGCTTT | -1.32
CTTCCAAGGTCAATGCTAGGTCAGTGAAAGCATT | 5.14
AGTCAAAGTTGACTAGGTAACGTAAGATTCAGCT | 1.41
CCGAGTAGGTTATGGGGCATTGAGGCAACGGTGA | 2.09
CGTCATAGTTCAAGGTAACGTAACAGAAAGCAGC | 2.48
TTACCAAGGTGAGCTGGGGTCGTTGATCCAACTC | 2.37
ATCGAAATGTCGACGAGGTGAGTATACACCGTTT | 0.206
GCTTACGGGTAAAAGGTTATAGCATGAATAGAAT | 4.81
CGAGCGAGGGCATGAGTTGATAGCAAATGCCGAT | 0.945
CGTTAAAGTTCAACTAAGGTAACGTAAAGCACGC | 4.8

====

Listed next: entries and their corresponding PBM binding z-score.
Tested on: PPARg DBDmut IVT, anti-PPARg (DBD mutation: PPARg1 K132A/R137A, NR concentration 270 nM)
Test: PBM binding z-score (relative to random genomic background probes); higher = stronger binding; sequences stand for … in GC…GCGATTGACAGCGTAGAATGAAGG

Item sequence | PBM binding z-score
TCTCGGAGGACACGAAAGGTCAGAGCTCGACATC | -1.26
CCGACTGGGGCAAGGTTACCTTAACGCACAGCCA | -0.772
CCTACTGGGCCACGCAAGGTCATTGATTCAGTGA | 0.776
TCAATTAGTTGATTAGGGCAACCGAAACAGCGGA | 0.646
GCGACTGGGGCATCAGCAGGTTACTATAACTTAA | -0.562
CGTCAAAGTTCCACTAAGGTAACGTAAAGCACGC | 0.445

This collection of values is drawn from the supplement of paper PMC6555819.
